Origin of the recorded values: the NIST ThermoML archive (doi:10.1021/je034017j)

mass density values, listed per item
conditionContext: 313.15 K; 101 kPa; Liquid
The reply should be a number in kg/m3, with the unit left off.

A selection of reference data follows.
[
  {
    "molecule": "CCCCCCO [hexan-1-ol]",
    "experimentalResult": 804.28
  },
  {
    "molecule": "CCCCC(=O)OC [methyl pentanoate]",
    "experimentalResult": 869.32
  }
]

Q: Could you share which mass density value was measured for CCCCCCC(=O)OC [methyl heptanoate] ?
Result: 861.65

Q: // lookup mass density for CCCCCCCC [octane]
Result: 686.12

---

conditionContext: 303.15 K; 101.33 kPa; Liquid
Listing of entries alongside the reported viscosity.
Express your answer in mPa·s, writing the number without its unit.

Guide cases for viscosity, answers given:
[
  {
    "compound": "CCCCCCCC [octane]",
    "experimentalResult": 0.483
  },
  {
    "compound": "CCCCCCC(=O)OC [methyl heptanoate]",
    "experimentalResult": 0.95
  },
  {
    "compound": "CCCCC(=O)OC [methyl pentanoate]",
    "experimentalResult": 0.623
  }
]

# input for lookup
Q: Look at this compound and give its reported viscosity. CCCCCCO [hexan-1-ol]
Result: 3.964
